Tested on: RXF 393 renal
Test: NCI-60 one-dose screen, 48 h (100 = growth as untreated, 0 = no growth, -100 = all killed)
Conditions: 10 µM unless noted
Description: Cells are grown in 96 well plates and exposed to the test compound for 48 hours. Compounds are tested at a single concentration, which is 10^-5 M for most compounds. The reported endpoint is percent growth (GI% or GIPRCNT), where numbers from 0 - 100% represent growth inhibition, and numbers from -100% - 0 represent cell death. For example, a value of 40 represents 60% growth inhibition. A value of 0 means no net growth occurred over the course of the experiment. […]
About 83,000 compounds went through this panel and 20% of them were active in at least one assay; those are over-represented in the sample as a whole.
The label 1 is reserved for growth strictly under 80%; 0 covers values equal to or above it.

Below are worked cases with known answers.
>  <COMPOUND>
Nc1c(C(=O)Nc2ccc(C(F)(F)F)cc2)sc2nc(-c3cnccn3)cc(-c3cccs3)c12

>  <CAT>
1

$$$$
>  <COMPOUND>
COc1ccc(-c2csc(N/N=C/c3c(-c4ccc(S(C)(=O)=O)cc4)nc4ccccn34)n2)cc1

>  <CAT>
0

$$$$
>  <COMPOUND>
COc1ccc(C(=O)c2cc(C(=O)/C=C/c3c(Cl)cccc3Cl)c3cc(C)ccn23)cc1

>  <CAT>
0

$$$$
>  <COMPOUND>
COc1ccc(-c2cc(C(=O)N=Nc3c(O)[nH]c4ccccc34)c3ccccc3n2)cc1OC

>  <CAT>
0

$$$$
>  <COMPOUND>
COc1cc(/C=C/C(=O)c2ccc(Cl)cc2)ccc1Oc1nc(NCCO)nc(N2CCOCC2)n1

>  <CAT>
0

$$$$

Please indicate whether the reported growth of `Clc1ccc2c(OCCCN3CCOCC3)c3oc4ccccc4c3nc2c1` is strictly below 80%.
1

Answer whether the compound `CS(=O)(=O)c1ccc(-c2nc3ccccn3c2/C=N/Nc2nc(-c3ccc(Br)cc3)cs2)cc1` has growth strictly less than 80%
0

Input `COc1cc(OC)c(S(=O)(=O)NNC(=O)c2ccncc2)cc1C(=O)/C=C/c1ccc(C)cc1` ; condition: growth strictly below 80%. Does it hold?
0
